These data points were gathered from ChEMBL document CHEMBL1143952.

Assay target: OCTN2 (organic cation/carnitine transporter 2) (Rattus norvegicus, UniProt O70594)
Sequence (O70594 whole entry): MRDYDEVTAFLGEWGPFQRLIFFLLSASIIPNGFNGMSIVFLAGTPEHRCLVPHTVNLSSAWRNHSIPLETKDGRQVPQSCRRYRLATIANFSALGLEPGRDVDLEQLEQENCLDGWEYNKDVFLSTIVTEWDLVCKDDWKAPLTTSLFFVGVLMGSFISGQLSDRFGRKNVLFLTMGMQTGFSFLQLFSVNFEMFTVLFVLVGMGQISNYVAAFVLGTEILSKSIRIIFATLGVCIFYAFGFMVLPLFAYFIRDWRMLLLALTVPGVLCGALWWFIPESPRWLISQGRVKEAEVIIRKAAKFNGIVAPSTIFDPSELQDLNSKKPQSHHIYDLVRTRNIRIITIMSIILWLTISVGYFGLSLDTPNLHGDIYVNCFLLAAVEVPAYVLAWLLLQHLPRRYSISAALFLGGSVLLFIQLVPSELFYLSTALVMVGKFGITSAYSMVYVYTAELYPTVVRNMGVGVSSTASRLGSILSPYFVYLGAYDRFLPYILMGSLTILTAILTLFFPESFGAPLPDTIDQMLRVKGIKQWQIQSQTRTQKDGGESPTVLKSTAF
Test summary: Inhibition of rat kidney brush border membrane OCTN2 transporter assessed as [3H]carnitine uptake after 30 mins relative to control
Parameters: scale not given: the % may be the effect or the level left
Study conditions: probe [3H]carnitine, read-out: Activity
Assay metric: activity at 0.5 h (%)

Recorded results for 2 compounds are shown here.
CCOC(=O)C[C@@H](C[N+](C)(C)C)OC(=O)CCCCCCCCCCCCCCCO[N+](=O)[O-].[Cl-] :: 3.1
C[N+](C)(C)C[C@H](CC(=O)O)OC(=O)CCCCCCCCCCCCCCCO[N+](=O)[O-].[Cl-] :: 16.3

[I] C[N+](C)(C)C[C@H](CC(=O)O)OC(=O)CCCCCO[N+](=O)[O-].[Cl-]
[II] CCOC(=O)C[C@@H](C[N+](C)(C)C)OC(=O)CCCCCO[N+](=O)[O-].[Cl-]
// compare measured activity at 0.5 h between I and II ; output the lower one Lab note: record the label of whichever item you select. II
